The measured values listed here are drawn from the supplement of paper PMC10567573.

B1: DYRK1B (parent)
chain: KKVLNHGYDDDNHDYIVRSGERWL

variants of: B1; assay: protein stability index of a GFP-peptide fusion (GPS, HEK-293T) (PSI 1-6); higher = more stable; settings: c terminus: a fixed tail appended;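 also: lentivirally expressed fusions sorted by FACS into six bins by GFP to DsRed ratio, PSI derived from sequencing read proportions per bin multiplied by bin number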

- mutationCode: "Y15W"
  protein stability index: 3.07
- mutationCode: "D11K"
  protein stability index: 2.92
- mutationCode: "N5Q"
  protein stability index: 3.01
